Target: T1, recombinant human LIF (Leukemia Inhibitory Factor) (human, UniProt P15018 23-202)
T1 construct: also called biotinylated recombinant human LIF
T1 sequence (P15018 23-202 limits assumed, form in doubt): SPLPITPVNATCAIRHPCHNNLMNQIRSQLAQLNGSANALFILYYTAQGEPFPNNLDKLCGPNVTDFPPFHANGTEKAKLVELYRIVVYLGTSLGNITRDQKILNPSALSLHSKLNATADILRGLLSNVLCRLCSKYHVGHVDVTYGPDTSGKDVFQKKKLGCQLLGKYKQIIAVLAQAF
Assay: BLI (Octet), antibody on anti-human Fc biosensors, human LIF in solution
metric-name: Kd (nM)
Numbers only here, please. The scale is nM.

Consider the reported Kd for these binders:
get_value(item= NB0920 (antibody, V domains shown, Humanized variant of B7 by CDR grafting; also called Clone 920) VH: QVQLQESGPGLVKPSDTLSLTCTVSGFSFSTDYWWSWIRQPPGKGLEWIGYIYVGTSGDTYYNPSLKSRVTISVDTSKNQFSLKLSSVTAADTAVYYCAGADNPYDYFNLWGQGTLVTVSS VL: DIQMTQSPSSLSASVGDRVTITCRASETISGYLAWYQQKPGKVPKLLIYRASTLQSGVPSRFSGSGSGTDFTLTISSLQPEDVATYYCQQGYSYSDTDNVFGGGTKVEIK , readout=Kd) returns 9.97

get_value(item= NB0937 (antibody, V domains shown, Humanized variant of B7 by CDR grafting; also called Clone 937) VH: EVQLVESGGGLVQPGGSLRLSCAASGFSFSTDYWMSWVRQAPGKGLEWVSSIYVGTSGDTYYADSVKGRFTISRDNSKNTLYLQMDSLRAEDTAIYYCAGADNPYDYFNLWGQGTLVTVS VL: DIQMTQSPSSVSASVGDRVTITCRASETISGYLAWYQQKPGKAPKLLIYRASSLESGVPSRFSGSGSGTEFTLTISSLQPDDFATYYCQQGYSYSDTDNVFGGGTKVEIK , readout=Kd) returns 5.02

get_value(item= NB0919 (antibody, V domains shown, Humanized variant of B7 by CDR grafting; also called Clone 919) VH: QVQLQESGPGLVKPSDTLSLTCTVSGFSFSTDYWWSWIRQPPGKGLEWIGYIYVGTSGDTYYNPSLKSRVTISVDTSKNQFSLKLSSVTAADTAVYYCAGADNPYDYFNLWGQGTLVTVSS VL: DIQMTQSPSSLSASVGDRVTITCRASETISGYLNWYQQKPGKAPKLLIYRASSLQSGVPSRFSGSGSGTDFTLTISSLQPEDFATYYCQQGYSYSDTDNVFGGGTKVEIK , readout=Kd) returns 19.6

// next entry
get_value(item= NB0938 (antibody, V domains shown, Humanized variant of B7 by CDR grafting; also called Clone 938) VH: EVQLVESGGGLVQPGGSLRLSCAASGFSFSTDYWMSWVRQAPGKGLEWVSSIYVGTSGDTYYADSVKGRFTISRDNSKNTLYLQMDSLRAEDTAIYYCAGADNPYDYFNLWGQGTLVTVS VL: DIQMTQSPSSLSASVGDRVTITCRASETISGYLNWYQQKPGKAPKLLIYRASSLQSGVPSRFSGSGSGTDFTLTISSLQPEDFATYYCQQGYSYSDTDNVFGGGTKVEIK , readout=Kd) returns 10.6
